Each recorded value in this set is attributed to PubChem BioAssay (NCI).

The following compounds are shown together with reported growth inhibition values.
- Test details: NCI Yeast Anticancer Drug Screen. Data for the cln2 rad14 strain (AID 165);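 note: 0% = growth equal to vehicle treated cultures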
- Experimental setup: S. cerevisiae cln2 rad14 strain, at 5.0 µM (retest, dose inferred, filed as 0.5), active compounds read high
This is part of a sample that, as a whole, favours compounds with a hit. Of some 79,000 tested, about 15% had one in any assay.

Compound	Unit abbrev	growth inhibition
Cc1ccc(C)c2c3c([nH]c12)-c1ccccc1CC3	%	-1
C(#Cc1ccccc1)Sc1ccccc1	%	6
ClCc1ccccc1Cc1ccccc1	%	-1
CN(C)CCN(C)N=Nc1c(-c2cccs2)n[nH]c1C(F)(F)F	%	99
c1ccc([B-](c2ccccc2)(c2ccccc2)c2ccccc2)cc1	%	4
COC(=O)c1ccccc1CC(Cc1ccc2c(c1)CCC2)C(=O)OC (stereo unspecified)	%	9
